Source of measurements: patent US7998989B2

reported.endpoint: melting point (°C)

>  <compound>
CCCCN1C(=NC2CCCCC2)SCC1CC(=O)Nc1ccc(Cl)cc1.Cl (stereo not drawn) [KHG24262]

>  <melting point / °C>
194.3

$$$$
>  <compound>
CN1C(=NC2CCCCCC2)SCC1C(=O)NCc1cccc(F)c1.Cl (stereo not drawn) [KHG24666]

>  <melting point / °C>
226.1

$$$$
>  <compound>
Cl.O=C(CC1CSC(=NC2CCCCC2)N1C1CCCCC1)NCc1ccccc1C(F)(F)F (stereo not drawn) [KHG24547]

>  <melting point / °C>
180

$$$$

A = CN1C(=NC2CCCCCC2)SCC1C(=O)Nc1cc([N+](=O)[O-])ccc1F (stereo not drawn) [KHG24661]
B = Cc1ccc(NC(=O)CC2CSC(=NC34CC5CC(CC(C5)C3)C4)N2C(C)C)cc1Cl.Cl (stereo not drawn) [KHG24836]
Field: lower melting point | Options: A / B Reply briefly: the label of your chosen item.
A
(A: 151.1 °C, B: 231 °C)

a = CC(C)c1cccc(NC(=O)CC2CSC(=NC3CCCCC3)N2C)c1.Cl (stereo not drawn) [KHG24528]
b = CCCN1C(=NC23CC4CC(CC(C4)C2)C3)SCC1CC(=O)Nc1ccc(C)cc1.Cl (stereo not drawn) [KHG24813]
For the pair a and b , which member has the lower melting point number? Kindly give the label for the entry you pick.
a
(a: 160 °C, b: 239 °C)

---

# assay.target: α1G T-type calcium channel (Homo sapiens, UniProt O43497)
# Construct: host or cells: HEK293
# Sequence (O43497 whole entry): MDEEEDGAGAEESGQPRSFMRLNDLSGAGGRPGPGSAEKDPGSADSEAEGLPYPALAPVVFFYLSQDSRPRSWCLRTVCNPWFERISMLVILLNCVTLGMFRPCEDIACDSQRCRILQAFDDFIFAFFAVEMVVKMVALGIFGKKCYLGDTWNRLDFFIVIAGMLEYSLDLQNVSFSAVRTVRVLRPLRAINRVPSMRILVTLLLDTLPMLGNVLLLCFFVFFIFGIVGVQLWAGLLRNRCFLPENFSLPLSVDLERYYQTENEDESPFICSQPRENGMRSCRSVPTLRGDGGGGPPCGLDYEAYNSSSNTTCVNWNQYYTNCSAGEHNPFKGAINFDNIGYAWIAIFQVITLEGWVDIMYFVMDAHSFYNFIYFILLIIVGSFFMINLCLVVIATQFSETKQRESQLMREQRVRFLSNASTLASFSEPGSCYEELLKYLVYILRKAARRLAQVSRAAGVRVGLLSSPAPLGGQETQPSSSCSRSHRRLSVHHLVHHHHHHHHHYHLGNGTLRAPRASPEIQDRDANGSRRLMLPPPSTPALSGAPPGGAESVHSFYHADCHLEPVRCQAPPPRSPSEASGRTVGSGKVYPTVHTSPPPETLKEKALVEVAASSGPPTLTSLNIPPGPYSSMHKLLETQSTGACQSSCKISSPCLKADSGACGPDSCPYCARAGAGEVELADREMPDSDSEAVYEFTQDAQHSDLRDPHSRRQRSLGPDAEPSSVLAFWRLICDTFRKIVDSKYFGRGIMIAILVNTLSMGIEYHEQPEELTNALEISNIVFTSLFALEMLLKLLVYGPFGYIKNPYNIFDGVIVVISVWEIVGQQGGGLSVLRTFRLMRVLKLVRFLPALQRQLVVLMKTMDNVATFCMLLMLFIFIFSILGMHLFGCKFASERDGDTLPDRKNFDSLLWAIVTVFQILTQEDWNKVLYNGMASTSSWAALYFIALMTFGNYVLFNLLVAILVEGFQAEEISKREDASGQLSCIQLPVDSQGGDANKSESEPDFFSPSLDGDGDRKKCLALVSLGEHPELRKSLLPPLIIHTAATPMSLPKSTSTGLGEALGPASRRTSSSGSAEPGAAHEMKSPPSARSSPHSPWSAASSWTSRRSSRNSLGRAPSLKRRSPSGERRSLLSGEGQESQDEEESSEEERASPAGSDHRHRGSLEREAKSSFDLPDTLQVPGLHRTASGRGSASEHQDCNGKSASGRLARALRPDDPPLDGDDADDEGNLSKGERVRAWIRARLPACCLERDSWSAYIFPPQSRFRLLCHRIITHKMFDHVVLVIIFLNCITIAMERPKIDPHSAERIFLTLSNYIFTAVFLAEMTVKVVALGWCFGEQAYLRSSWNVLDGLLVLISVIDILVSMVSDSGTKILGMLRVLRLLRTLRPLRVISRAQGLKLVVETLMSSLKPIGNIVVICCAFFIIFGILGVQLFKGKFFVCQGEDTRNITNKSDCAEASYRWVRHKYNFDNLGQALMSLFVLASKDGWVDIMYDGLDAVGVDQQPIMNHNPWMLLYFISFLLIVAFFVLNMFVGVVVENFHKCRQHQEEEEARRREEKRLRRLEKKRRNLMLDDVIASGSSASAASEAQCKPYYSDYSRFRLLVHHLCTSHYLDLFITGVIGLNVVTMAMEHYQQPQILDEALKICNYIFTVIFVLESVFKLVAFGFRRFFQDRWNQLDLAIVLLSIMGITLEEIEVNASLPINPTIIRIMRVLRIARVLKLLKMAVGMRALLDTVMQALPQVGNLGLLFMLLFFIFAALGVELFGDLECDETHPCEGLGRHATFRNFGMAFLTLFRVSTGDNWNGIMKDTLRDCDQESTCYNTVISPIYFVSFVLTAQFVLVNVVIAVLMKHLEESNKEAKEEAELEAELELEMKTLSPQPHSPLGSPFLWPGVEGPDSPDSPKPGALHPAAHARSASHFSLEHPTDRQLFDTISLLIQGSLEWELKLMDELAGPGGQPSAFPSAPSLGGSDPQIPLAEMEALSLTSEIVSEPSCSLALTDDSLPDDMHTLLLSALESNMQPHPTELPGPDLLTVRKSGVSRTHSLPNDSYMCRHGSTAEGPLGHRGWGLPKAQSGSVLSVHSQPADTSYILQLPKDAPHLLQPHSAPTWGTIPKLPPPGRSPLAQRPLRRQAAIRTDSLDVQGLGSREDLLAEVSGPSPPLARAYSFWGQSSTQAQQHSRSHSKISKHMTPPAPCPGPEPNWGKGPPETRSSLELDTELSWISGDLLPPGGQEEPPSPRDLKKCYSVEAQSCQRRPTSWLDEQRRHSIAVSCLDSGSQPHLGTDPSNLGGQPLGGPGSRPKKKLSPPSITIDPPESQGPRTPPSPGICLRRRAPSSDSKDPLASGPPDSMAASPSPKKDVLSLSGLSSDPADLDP
# assay: Assay for % inhibiting activity against T-type calcium channel using FDSS6000 (fluo-3 calcium imaging, KCl activation)
# Format: cell-based
# measurement.setup: HEK293, 10 μM; HEK293 cells stably expressing α1G T-type calcium channel and Kir2.1; compounds of the examples; read-out: FDSS (% inhibition)/10uM
reported.endpoint: inhibition at 10 µM (%)

Here is how some compounds turned out for inhibition at 10 µM.
>  <compound>
Cl.O=C(CC1CSC(=NC2CCCCC2)N1Cc1ccccc1)Nc1ccc(F)cc1 (stereo not shown) [KHG24305, hydrochloride]

>  <assay.target>
α1G T-type calcium channel (Homo sapiens, UniProt O43497)

>  <endpoint.unit>
%

>  <inhibition at 10 µM>
58.9

$$$$
>  <compound>
CCCN1C(=NC2CCCCC2)SCC1CC(=O)Nc1cc(Cl)cc(Cl)c1.Cl (stereo not shown) [KHG24415, hydrochloride]

>  <assay.target>
α1G T-type calcium channel (Homo sapiens, UniProt O43497)

>  <endpoint.unit>
%

>  <inhibition at 10 µM>
64.2

$$$$

A = Cl.O=C(CC1CSC(=NC2CCCCC2)N1C1CC1)Nc1cc(C(F)(F)F)cc(C(F)(F)F)c1 (stereo not shown) [KHG24267, hydrochloride]
B = COc1cccc(NC(=O)CC2CSC(=NC3CCCCC3)N2C)c1.Cl (stereo not shown) [KHG24076, hydrochloride]
Lab note: check whether A or B has the lower measured inhibition at 10 µM. Pick one and reply with its label.
B

---

# assay.target: α1G T-type calcium channel (Homo sapiens, UniProt O43497)
# Construct: host or cells: HEK293
# assay: Assay for % inhibiting activity against T-type calcium channel using FDSS6000 (fluo-3 calcium imaging, KCl activation)
# Type: cell-based
# measurement.setup: HEK293, 10 μM; HEK293 cells stably expressing α1G T-type calcium channel and Kir2.1; compounds of the examples; read-out: FDSS (% inhibition)/10uM
reported.endpoint: inhibition at 10 µM (%)

>  <compound>
CN1C(=NCC2CCCCC2)SCC1CC(=O)Nc1cc([N+](=O)[O-])ccc1F.Cl (centres unmarked) [KHG24234, hydrochloride]

>  <recorded.value>
45.4

$$$$

1 = CCCCN1C(=NC2CCCCC2)SCC1CC(=O)Nc1ccc(CC)cc1.Cl (centres unmarked) [KHG24286, hydrochloride]
2 = CN1C(=NC2CCCCC2)SCC1CC(=O)NCc1ccc(F)cc1.Cl (centres unmarked) [KHG24112, hydrochloride]
Could you check which of 1 and 2 has a smaller value for inhibition at 10 µM? Indicate your choice by writing its label.
2

---

# assay.target: α1G T-type calcium channel (Homo sapiens, UniProt O43497)
# Construct: host or cells: HEK293
# assay: Assay for % inhibiting activity against T-type calcium channel using FDSS6000 (fluo-3 calcium imaging, KCl activation)
# Assay type: cell-based
# measurement.setup: HEK293, 10 μM; HEK293 cells stably expressing α1G T-type calcium channel and Kir2.1; compounds of the examples; read-out: FDSS (% inhibition)/10uM
Counter-ions that a name gives are not always drawn.
reported.endpoint: inhibition at 10 µM (%)

Some compounds with known inhibition at 10 µM results, for comparison:
>  <compound>
CCc1ccc(NC(=O)CC2C(C)SC(=NC3CCCCCC3)N2C)cc1.Cl (stereo not drawn) [KHG24517, hydrochloride]

>  <inhibition at 10 µM [%]>
49.6

$$$$
>  <compound>
CN1C(=NC2CCCCCC2)SCC1CC(=O)Nc1ccc(N)cc1 (stereo not drawn) [KHG24448, hydrochloride]

>  <inhibition at 10 µM [%]>
47.4

$$$$
>  <compound>
CC1SC(=NC2CCCCCC2)N(C)C1CC(=O)Nc1cc(C(F)(F)F)cc(C(F)(F)F)c1.Cl (stereo not drawn) [KHG24646, hydrochloride]

>  <inhibition at 10 µM [%]>
58.1

$$$$
>  <compound>
CC(C)N1C(=NC23CC4CC(CC(C4)C2)C3)SCC1CC(=O)Nc1cc([N+](=O)[O-])ccc1F.Cl (stereo not drawn) [KHG24840, hydrochloride]

>  <inhibition at 10 µM [%]>
49.4

$$$$
>  <compound>
Cc1ccc(NC(=O)CC2CSC(=NC34CC5CC(CC(C5)C3)C4)N2C(C)C)cc1.Cl (stereo not drawn) [KHG24831, hydrochloride]

>  <inhibition at 10 µM [%]>
57

$$$$

P = CN1C(=NC2CCCCCC2)SCC1C(=O)Nc1ccc(Br)cc1 (stereo not drawn)
Q = CCCCc1ccc(NC(=O)CC2CSC(=NC3CCCCC3)N2CC)cc1.Cl (stereo not drawn) [KHG24277, hydrochloride]
Of P and Q , whose reported inhibition at 10 µM is the larger number? Please reply using the label of the selected record.
Q

I = CCCN1C(=NC23CC4CC(CC(C4)C2)C3)SCC1CC(=O)Nc1cc(Cl)cc(Cl)c1.Cl (stereo not drawn) [KHG24805, hydrochloride]
II = CCCCN1C(=NC23CC4CC(CC(C4)C2)C3)SCC1CC(=O)Nc1cc(Cl)ccc1F.Cl (stereo not drawn) [KHG24785, hydrochloride]
Task for the reader: decide whether I or II has the larger inhibition at 10 µM. State your choice using its label.
II

P = CC(C)c1ccc(NC(=O)CC2CSC(=NCCc3ccccc3)N2C)cc1.Cl (stereo not drawn) [KHG24220, hydrochloride]
Q = CCCN1C(=NC2CCCCC2)SCC1CC(=O)Nc1ccc(CC)cc1.Cl (stereo not drawn) [KHG24298, hydrochloride]
// pick min by inhibition at 10 µM: P , Q Please identify the chosen entry by its label.
P

I = Cc1ccccc1CNC(=O)CC1CSC(=NC2CCCCC2)N1C.Cl (stereo not drawn) [KHG24082, hydrochloride]
II = CCCCc1ccc(NC(=O)CC2C(C)SC(=NC3CCCCCC3)N2C)cc1.Cl (stereo not drawn) [KHG24516, hydrochloride]
Hey, which is lower on measured inhibition at 10 µM, I or II ? Answer with the label corresponding to your selection.
I
(I: 37.4%, II: 54.6%)

---

reported.endpoint: melting point

The cases that follow already have their melting point on record.
>  <molecule>
CN1C(=NC2CC2)SCC1CC(=O)Nc1ccc(CC#N)cc1.Cl (centres unmarked)

>  <melting point>
245 to 245.5 °C

$$$$
>  <molecule>
CCCN1C(=NC2CCCCC2)SCC1CC(=O)Nc1cc([N+](=O)[O-])ccc1F.Cl (centres unmarked) [KHG24295]

>  <melting point>
139.2 °C

$$$$

Given CN1C(=NC2CCCCC2)SCC1CC(=O)NCc1ccccc1.Cl (centres unmarked) , respond with its melting point.
206 to 206.5 °C

---

# assay.target: α1G T-type calcium channel (Homo sapiens)
# Construct: host or cells: HEK293
# assay: Assay for % inhibiting activity against T-type calcium channel using FDSS6000 (fluo-3 calcium imaging, KCl activation)
# Assay type: cell-based
# measurement.setup: HEK293, 10 μM; HEK293 cells stably expressing α1G T-type calcium channel and Kir2.1; compounds of the examples; read-out: FDSS (% inhibition)/10uM
reported.endpoint: inhibition at 10 µM (%)

// worked examples, inhibition at 10 µM included
>  <molecule>
Cc1ccc(NC(=O)CC2CSC(=NC34CC5CC(CC(C5)C3)C4)N2C)c(Cl)c1.Cl (stereo not shown) [KHG24418, hydrochloride]

>  <endpoint.unit>
%

>  <inhibition at 10 µM>
56.9

$$$$
>  <molecule>
CN1C(=NC2CCCCC2)SCC1CC(=O)Nc1ccc(C(C)(C)C)cc1.Cl (stereo not shown) [KHG24073, hydrochloride]

>  <endpoint.unit>
%

>  <inhibition at 10 µM>
57.3

$$$$
>  <molecule>
CC1SC(=NC2CCCC2)N(C)C1CC(=O)Nc1ccc(C(C)(C)C)cc1.Cl (stereo not shown) [KHG24656, hydrochloride]

>  <endpoint.unit>
%

>  <inhibition at 10 µM>
46.1

$$$$
>  <molecule>
CC1SC(=NC2CCCCC2)N(C)C1CC(=O)Nc1cc(Cl)cc(Cl)c1 (stereo not shown)

>  <endpoint.unit>
%

>  <inhibition at 10 µM>
52.5

$$$$
>  <molecule>
CCCN1C(=NC23CC4CC(CC(C4)C2)C3)SCC1CC(=O)Nc1ccc(Br)cc1.Cl (stereo not shown) [KHG24812, hydrochloride]

>  <endpoint.unit>
%

>  <inhibition at 10 µM>
53.8

$$$$

P = Cl.O=C(CC1CSC(=NC2CCCCC2)N1Cc1ccccc1)Nc1cc(Cl)cc(Cl)c1 (stereo not shown) [KHG24422, hydrochloride]
Q = Cl.O=C(CC1CSC(=NC23CC4CC(CC(C4)C2)C3)N1C1CC1)Nc1cc(C(F)(F)F)cc(C(F)(F)F)c1 (stereo not shown) [KHG24792, hydrochloride]
Of P and Q , which shows the smaller inhibition at 10 µM value? Please reply using the label of the selected record.
P
